meta.source: patent US20210169980A1

molecular target: T1, LGG-1 (C. elegans, UniProt Q09490 1-123, limits assumed); assay: ITC (table of Kd values)
T1 construct: Purified protein in the ITC; also called worm orthologue of GABARAP
T1 sequence (Q09490 whole entry): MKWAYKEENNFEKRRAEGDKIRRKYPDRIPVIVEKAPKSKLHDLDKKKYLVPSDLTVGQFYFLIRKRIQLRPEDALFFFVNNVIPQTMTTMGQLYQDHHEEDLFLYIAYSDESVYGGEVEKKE
Observable: Kd
Remember to follow the number with its unit.

Memo: VEEEWVIVSDEEIEEARQKAPLEITEY [AnkB LIR (AnkB WT peptide, human 440 kD AnkB residues 1588-1614)] , reported Kd: 1.2 nM

Kindly note the recorded Kd for PEDDWTEFSSEEIREARQAAASHAPS [AnkG LIR (AnkG WT peptide, rat 480 kD AnkG residues 1985-2010)] , which is 1.6 nM

The binder PEDDWTRFSSEEIREARQAAASHAPS (also called AnkG ER; Glu1991Arg AnkG LIR) [AnkG E1991R (modified from rat 480 kD AnkG residues 1985-2010)] showed Kd equal to 8.5 nM
